Data provenance is ChEMBL document CHEMBL1201862.

# System: 786-0
# protocol_notes: NCI tumour cell line growth inhibition, 48 h
Calls of active or inactive are those of the source. No stated cut-off is given here; in the data, active = GI50 up to about 1.1 µM and inactive = higher.
Possible outcomes: active, inactive

| compound | classification |
| --- | --- |
| NCCCNOCCCN | inactive |
| CC(=O)/C(=C\c1ccco1)C(=O)Nc1ccccc1 | inactive |
| Clc1cccc(N2CCN(CCN3CCc4c([nH]c5ccccc45)C3c3cccnc3)CC2)c1 (stereo unspecified) | inactive |
| C=C1CN2CCc3c([nH]c4ccccc34)C2CC1CC(=O)N(C)C (stereo unspecified) | inactive |
| CC1(Cl)C(=O)NC(=O)N(C2CC(N=[N+]=[N-])C(CO)O2)C1N=[N+]=[N-] (stereo unspecified) | inactive |
| Cc1nc(Cl)c(CBr)c(Cl)n1 | active |
| CSc1nc(C)cc(Nc2ccc(O)c(CN3CCOCC3)c2)n1 | inactive |
| CC1(CCCO)CCCCCCCCCC(C)(CCCO)C1=O (stereo unspecified) | inactive |
| CC1=NN(C(=O)CC(=O)Nc2ccccc2F)C(=O)C1/N=N/c1ccccc1[N+](=O)[O-] (stereo unspecified) | inactive |
| CCN1CCC(O)(c2ccccc2)C(C(=O)c2ccccc2)C1 (stereo unspecified) | inactive |
| c1ccc(CNCCCNCCCCNCCCNCc2ccccc2)cc1 | inactive |

* * *

# Tested on: HL-60
# protocol_notes: NCI tumour cell line growth inhibition, 48 h
Where a name gives a salt, the structure may show the parent alone. The source made the active and inactive calls. Cut-off read from the data, not from the text of the source: active = GI50 up to about 1.1 µM and inactive = higher.
Recorded GI50, one value per entry.
quantity_name: GI50

| molecule | experimental_result |
| --- | --- |
| CCCOc1nc(N)c2cnn(C3CCCCO3)c2n1 (stereo not given) | > 100 µM (inactive) |
| [O-][S+](Cc1ccccc1)c1ccccc1Cn1cccc1 (stereo not given) | > 100 µM (inactive) |
| CC(=O)N(O)CCCCCNC(=O)CCC(=O)N(O)CCCCCNC(=O)CCC(=O)N(O)CCCCCN [DEFEROXAMINE HYDROCHLORIDE] | 31 µM (inactive) |
| CCC(CCN)(CCN)[N+](=O)[O-] | > 100 µM (inactive) |
| CN/C(N)=N/N=C1/C(=O)Nc2ccccc21 | > 100 µM (inactive) |
| COc1cccc(/C=C2\N=C(c3ccccc3)OC2=O)c1 | 10.7 µM (inactive) |
| O=C1c2ccccc2C(=O)c2sc(Nc3ccc(Cl)cc3)nc21 | 0.1 µM (active) |
| COC(=O)C(Cc1nc2ccc(Cl)cc2nc1O)C(=O)C(=O)Nc1ccccc1[N+](=O)[O-] (stereo not given) | > 100 µM (inactive) |
| Brc1ccc(C2=NCSC(c3ccc(Br)cc3)=N2)cc1 | 11 µM (inactive) |
| CC1=CC2C3(C)C(C)(C(C)=CP3(=O)c3c(C(C)C)cc(C(C)C)cc3C(C)C)C1P2(=O)c1c(C(C)C)cc(C(C)C)cc1C(C)C (stereo not given) | 1.09 µM (active) |
| c1ccc(CNCCCNCCCCNCCCNCc2ccccc2)cc1 | 0.656 µM (active) |
| CCc1c(OC(C)=O)c2c(NC3OCC(OC(C)=O)C(OC(C)=O)C3OC(C)=O)nc(SC)nc2oc1=O (stereo not given) | > 100 µM (inactive) |
| CN(C)CCNC(=O)C(C)(C)Oc1ccc(C(=O)c2ccc(Cl)cc2)cc1Cl | 5.26 µM (inactive) |
| O=C(NC1CC1)c1c(O)[nH]c(=S)[nH]c1=O | > 100 µM (inactive) |
| Cc1ccc2c(n1)C(=O)C=CC2=O | 0.486 µM (active) |
| CCOC(=O)C(=CNC(Cc1c[nH]c2ccccc12)C(=O)OC)C(=O)OCC (stereo not given) | > 100 µM (inactive) |
| Cc1ccc(S(=O)(=O)N2CCSCCSCCSCCSCC2)cc1 | 99.8 µM (inactive) |
| COC1/C=C/C(C)C(OC)CC(O)/C=C/C(C)C(C(C)C(OC)C(C)CCC(=O)C(C)C(C/C=C/N(C)C=O)OC)OC(=O)/C=C/C=C(\C)CC(OC)CC2=CC(=O)O[C@@H](C(C)C(OC)C1)[C@H]2O (stereo not given in full) | 0.064 µM (active) |
| Clc1cc2nnn(C3CCCO3)c2cc1Cl (stereo not given) | > 100 µM (inactive) |
| COc1cc(/C=C/C(=O)N[C@@H]2C(=O)N3[C@@H]2SC(C)(C)[C@@H]3C(=O)O)ccc1O | > 100 µM (inactive) |
